- SYSTEM TESTED: T1, type 2 ryanodine receptor (RyR2) channel in cardiac SR membranes (pig (endogenous in porcine heart SR), UniProt A0A5G2R1W3 1-4900)
- T1 construct: type 2 ryanodine receptor (RyR2), pig heart; homotetrameric assembly of 565-kDa protomers; 'intact RyR2 in cardiac SR vesicles'; In every assay RyR2 stood in native SR membranes and was preloaded with a donor-labelled FKBP12.6 (D-FKBP); also called cardiac ryanodine receptor; source: endogenous, SR vesicles isolated by differential ultracentrifugation of porcine ventricular tissue; residual …
- ASSAY PROCEDURE: FRET or BRET; FRET from D-14-FKBP on RyR2 in cardiac SR to A-DPc10, series of [A-DPc10]; Ca2+ not stated for this experiment; Hill fit
- CONDITIONS USED: one partner purified
pKd: −log10 of the molar value. Ends that are not written are not given here. QXL520 = non-fluorescent dark acceptor (quencher) probe
PARAMETER MEASURED: pKd

{"BINDER": "QXL520-GFCPDHKAAMVLFLDRVYGIEVQDFLLHLLEVGFLP (also called acceptor-DPc10; source: synthetic peptide (AnaSpec)) [acceptor-labeled DPc10 (A-DPc10), QXL520 at the N-terminus]", "READOUT VALUE": 5.00}

FYI, the data here is from paper PMC10454150.
